These measurements were taken from patent US20060020109A1.

This section presents binders with their documented IC50 values.
Target: T1, soluble recombinant HLA-DR2 molecules (MHC class II HLA-DR2 protein) (human)
T1 construct: Soluble, empty protein from Drosophila S2 cells, captured on plates by antibody LB3.1; also called MHC class II DR2 protein; recombinant HLA-DR2 protein
Assay: competition ELISA on soluble HLA-DR2; competitor biotinylated Cop 1 (1.5 µM)

binder: AAKEYAAYKAAAAAA [synthetic peptide #84]
IC50: > 1000 µM
//
binder: AKEEYAAYKAAAAAA [synthetic peptide #82]
IC50: > 1000 µM
//
binder: AKEAYAAYAAAAAAA [synthetic peptide #57]
IC50: > 1000 µM
//
binder: AAAKYAAAAAAAAAA [synthetic peptide #115]
IC50: > 1000 µM
//
binder: AEKAAAAYAAAAAAA [synthetic peptide #49]
IC50: > 1000 µM

Consider the binder EEKAYAYAKAAAAAA [synthetic peptide #106] and give its recorded IC50.
100 µM

Consider the binder AKKEYAEYKAAAAAA [synthetic peptide #103] and give its recorded IC50.
< 1 µM
